# Tgt: menin/MLL (terbium chelate-labeled menin, FITC-MBM1 peptide) (Homo sapiens, UniProt O00255, T541A)
# Construct: Menin (a.a 1-610-6xhis tag)
# Sequence (O00255 with tags, fused parts or gaps T541A): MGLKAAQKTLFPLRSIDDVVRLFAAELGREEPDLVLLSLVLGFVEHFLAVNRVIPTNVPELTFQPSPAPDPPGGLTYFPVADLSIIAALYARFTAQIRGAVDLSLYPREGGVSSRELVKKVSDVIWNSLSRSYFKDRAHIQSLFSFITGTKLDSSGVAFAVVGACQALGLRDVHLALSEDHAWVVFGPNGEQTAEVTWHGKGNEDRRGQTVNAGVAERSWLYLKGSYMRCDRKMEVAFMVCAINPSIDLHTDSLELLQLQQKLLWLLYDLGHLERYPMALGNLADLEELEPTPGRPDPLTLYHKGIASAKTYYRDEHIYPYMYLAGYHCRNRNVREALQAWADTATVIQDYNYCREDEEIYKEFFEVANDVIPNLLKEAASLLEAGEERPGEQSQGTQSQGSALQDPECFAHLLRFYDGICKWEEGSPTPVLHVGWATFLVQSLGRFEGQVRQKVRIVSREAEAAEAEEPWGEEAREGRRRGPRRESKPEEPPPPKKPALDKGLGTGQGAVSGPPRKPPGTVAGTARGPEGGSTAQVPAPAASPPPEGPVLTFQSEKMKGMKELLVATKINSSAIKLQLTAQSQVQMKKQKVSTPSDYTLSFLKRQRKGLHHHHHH
# Test protocol: Menin/MLL homogenous time-resolved fluorescence (HTRF) assay
# Conditions: 30 min incubation
Test readout: IC50 (nM)
Please give a number only; it is taken to be in nM.

A selection of reference data follows.
Molecule	IC50, nM
CC(C)[C@H]([C@H]1C[C@@H](N2CCC3(CN(C)C(=O)O3)C2)C1)N1CC2(CCN(c3ncnnc3Oc3ccc(F)cc3-c3cncnc3C3CC3)C2)C1 (single isomer, unassigned) [Compound 329]	0.3
CC(C)[C@@H]([C@H]1C[C@@H](N2C[C@H]3COC[C@H]3C2)C1)N1CC2(CCN(c3ncnnc3Oc3ccc(F)cc3-c3cnc(C#N)nc3C3CC3)C2)C1 [Compound 168]	0.6
CC(C)[C@@H]([C@H]1C[C@@H](NC(=O)C2CC2)C1)N1CC2(CCN(c3ncnnc3Oc3ccc(F)cc3-c3cnncc3C3CC3)C2)C1 (single isomer, unassigned) [Compound 186]	5.4
CC(=O)N1CCN([C@H]2C[C@@H]([C@H](C(C)C)N3CC4(CCN(c5ncnnc5Oc5ccc(F)cc5-c5cnncc5C5CC5)C4)C3)C2)CC1 (single isomer, unassigned) [Compound 104]	0.2
CC(C)[C@@H]([C@H]1C[C@H](N2C[C@H]3C[C@@H]2CO3)C1)N1CC2(CCN(c3ncnnc3Oc3ccc(F)cc3-c3cccnc3C3CC3)C2)C1 (single isomer, unassigned) [Compound 291]	0.2
CC(C)[C@H]([C@H]1C[C@@H](N2C[C@H]3COC[C@H]3C2)C1)N1CC2(CCN(c3ncnnc3Oc3ccc(F)cc3-c3ncccc3C3CC3)C2)C1 (single isomer, unassigned) [Compound 149]	0.1

Read the next record carefully.
Find the measured IC50 of C[C@H]([C@H]1C[C@@H](NC(=O)OC(C)(C)C)C1)N1CC2(CCN(c3ncnnc3Oc3ccc(F)cc3-c3cncnc3C3CC3)C2)C1 [Compound 512a] and report it. 29.8
